Consider the following pIC50 values measured on Maltase-glucoamylase (Homo sapiens, UniProt O43451).
Sequence (O43451 whole entry): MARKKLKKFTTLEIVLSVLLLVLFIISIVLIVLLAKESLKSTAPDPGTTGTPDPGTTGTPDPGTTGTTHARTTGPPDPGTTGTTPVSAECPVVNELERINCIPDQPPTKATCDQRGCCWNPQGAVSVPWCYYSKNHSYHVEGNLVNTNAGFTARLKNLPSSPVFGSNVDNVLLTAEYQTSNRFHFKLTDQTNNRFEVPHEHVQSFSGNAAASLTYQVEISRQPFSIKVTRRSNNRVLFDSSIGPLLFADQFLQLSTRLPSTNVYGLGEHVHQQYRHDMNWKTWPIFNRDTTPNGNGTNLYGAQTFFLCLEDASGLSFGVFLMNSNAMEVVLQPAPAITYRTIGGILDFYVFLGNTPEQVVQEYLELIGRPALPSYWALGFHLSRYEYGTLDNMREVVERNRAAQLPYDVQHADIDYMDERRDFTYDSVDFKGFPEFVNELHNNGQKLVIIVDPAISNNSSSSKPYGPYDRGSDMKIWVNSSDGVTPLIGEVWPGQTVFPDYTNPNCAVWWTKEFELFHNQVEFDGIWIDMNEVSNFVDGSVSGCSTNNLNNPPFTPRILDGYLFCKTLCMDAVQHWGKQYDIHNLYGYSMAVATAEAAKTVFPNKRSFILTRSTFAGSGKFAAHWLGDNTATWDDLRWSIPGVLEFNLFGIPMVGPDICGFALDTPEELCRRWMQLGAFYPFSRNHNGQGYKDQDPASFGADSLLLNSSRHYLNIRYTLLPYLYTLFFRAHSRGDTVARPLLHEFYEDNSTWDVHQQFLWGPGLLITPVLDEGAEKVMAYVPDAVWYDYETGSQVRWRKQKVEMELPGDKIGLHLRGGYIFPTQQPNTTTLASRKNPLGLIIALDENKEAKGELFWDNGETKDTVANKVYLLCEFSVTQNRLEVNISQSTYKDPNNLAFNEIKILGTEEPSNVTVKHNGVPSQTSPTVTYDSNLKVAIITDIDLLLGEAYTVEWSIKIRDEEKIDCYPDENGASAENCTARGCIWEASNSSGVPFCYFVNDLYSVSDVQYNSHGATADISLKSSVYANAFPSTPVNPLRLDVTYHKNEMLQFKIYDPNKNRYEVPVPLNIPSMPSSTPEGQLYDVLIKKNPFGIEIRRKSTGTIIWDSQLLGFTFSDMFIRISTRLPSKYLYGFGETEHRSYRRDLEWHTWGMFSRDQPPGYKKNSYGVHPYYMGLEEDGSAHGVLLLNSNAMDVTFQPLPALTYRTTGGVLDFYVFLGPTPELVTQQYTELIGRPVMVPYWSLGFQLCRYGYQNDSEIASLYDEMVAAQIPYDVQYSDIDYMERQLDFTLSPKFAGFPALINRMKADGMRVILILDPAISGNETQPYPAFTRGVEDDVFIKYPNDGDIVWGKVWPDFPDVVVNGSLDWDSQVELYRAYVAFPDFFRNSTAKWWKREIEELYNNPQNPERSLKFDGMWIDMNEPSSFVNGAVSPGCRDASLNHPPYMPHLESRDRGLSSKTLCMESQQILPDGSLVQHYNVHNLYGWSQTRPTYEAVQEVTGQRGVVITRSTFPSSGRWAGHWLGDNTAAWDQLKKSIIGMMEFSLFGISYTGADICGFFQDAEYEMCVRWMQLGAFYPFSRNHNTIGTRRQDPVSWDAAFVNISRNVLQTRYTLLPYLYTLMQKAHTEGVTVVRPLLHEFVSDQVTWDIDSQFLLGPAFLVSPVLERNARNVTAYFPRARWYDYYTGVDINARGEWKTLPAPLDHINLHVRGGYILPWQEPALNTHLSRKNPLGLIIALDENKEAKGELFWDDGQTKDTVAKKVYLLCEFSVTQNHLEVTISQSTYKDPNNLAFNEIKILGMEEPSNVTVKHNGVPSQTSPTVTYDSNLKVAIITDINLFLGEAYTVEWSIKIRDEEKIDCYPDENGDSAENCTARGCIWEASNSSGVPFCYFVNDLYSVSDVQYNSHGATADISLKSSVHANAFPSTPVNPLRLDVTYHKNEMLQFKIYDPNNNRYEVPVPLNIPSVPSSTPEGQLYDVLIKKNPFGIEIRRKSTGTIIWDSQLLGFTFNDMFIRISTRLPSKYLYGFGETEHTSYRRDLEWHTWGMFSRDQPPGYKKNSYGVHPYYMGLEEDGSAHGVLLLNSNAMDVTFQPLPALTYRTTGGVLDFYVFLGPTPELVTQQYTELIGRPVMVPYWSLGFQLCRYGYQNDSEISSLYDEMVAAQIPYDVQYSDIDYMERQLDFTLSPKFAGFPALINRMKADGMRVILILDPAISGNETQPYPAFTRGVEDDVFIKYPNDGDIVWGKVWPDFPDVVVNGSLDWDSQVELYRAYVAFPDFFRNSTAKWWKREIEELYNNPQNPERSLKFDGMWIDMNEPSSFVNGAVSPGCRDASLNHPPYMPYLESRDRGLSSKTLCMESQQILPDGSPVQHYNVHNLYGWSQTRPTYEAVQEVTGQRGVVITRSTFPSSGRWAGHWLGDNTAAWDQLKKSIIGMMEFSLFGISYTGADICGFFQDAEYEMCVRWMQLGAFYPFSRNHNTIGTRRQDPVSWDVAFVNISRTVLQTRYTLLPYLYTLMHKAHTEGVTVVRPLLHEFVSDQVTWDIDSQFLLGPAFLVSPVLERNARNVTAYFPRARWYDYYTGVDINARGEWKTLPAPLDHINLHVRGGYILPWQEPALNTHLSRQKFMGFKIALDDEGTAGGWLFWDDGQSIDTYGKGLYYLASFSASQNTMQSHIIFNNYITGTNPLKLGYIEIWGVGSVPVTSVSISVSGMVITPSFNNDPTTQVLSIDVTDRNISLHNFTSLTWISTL
In plain terms, pIC50 is the concentration in mol/L turned into minus its base-10 logarithm.

The following compounds have reported results that may help.
compound: O=[N+]([O-])c1ccccc1CO[C@@H](CO)[C@H](O)C[S@@+]1C[C@@H](O)[C@H](O)[C@H]1CO
studyTarget: Maltase-glucoamylase (Homo sapiens, UniProt O43451)
pIC50: 6.82
//
compound: CO[C@@H](CO)[C@H](O)C[S+]1C[C@@H](O)[C@H](O)[C@H]1CO (stereo partly specified)
studyTarget: Maltase-glucoamylase (Homo sapiens, UniProt O43451)
pIC50: 5.70
//
compound: OC[C@@H]1[C@@H](O)[C@H](O)C[S+]1C[C@@H](O)[C@@H](O)CO (stereo partly specified)
studyTarget: Maltase-glucoamylase (Homo sapiens, UniProt O43451)
pIC50: 5.05
//
compound: CCCCCO[C@@H](CO)[C@H](O)C[S+]1C[C@@H](O)[C@H](O)[C@H]1CO (stereo partly specified)
studyTarget: Maltase-glucoamylase (Homo sapiens, UniProt O43451)
pIC50: 5.82

Ask | Quick check: pIC50 of CCCCCCCO[C@@H](CO)[C@H](O)C[S+]1C[C@@H](O)[C@H](O)[C@H]1CO (stereo partly specified) ?
Reply | 6.19

Ask | // repeat for CC(C)(C)CO[C@@H](CO)[C@H](O)C[S+]1C[C@@H](O)[C@H](O)[C@H]1CO (stereo partly specified) and report
Reply | 6.33

Source listed as ChEMBL document CHEMBL3813698.
